Assay: Cytotoxicity against human SMMC-7404 cells after 72 hrs by MTT assay
Format: functional, cell-based
MEASURED PROPERTY: IC50

Below, 2 compounds whose answers are already recorded.
COC(=O)CC[C@@H](C)[C@H]1CC[C@H]2[C@@H]3CC[C@@H]4C[C@@H](O)CC[C@]4(C)[C@H]3CC(=O)N[C@]12C : > 200 µM
C[C@H](CCC(=O)O)[C@H]1CC[C@H]2[C@@H]3CC[C@@H]4CC(=O)CC[C@]4(C)[C@H]3CC(=O)N[C@]12C : > 200 µM

Prompt line: Entry "C[C@H](CCC(=O)O)[C@H]1CC[C@H]2[C@@H]3CC[C@@H]4C[C@@H](O)CC[C@]4(C)[C@H]3CC(=O)N[C@]12C" : reported IC50 = ?
Response line: > 200 µM
